Conditions: Heparin 5-0.019 mg/ml, 3 μM probe, probe-specific excitation λ, emission 545 nm
Method: 3 μM of each probe was applied to serial two fold dilutions of the carbohydrate of which the concentration shown here are 5 mg/ml (_.), 2.5 mg/ml (. . . ), 1.25 mg/ml (__) and 0 mg/ml (_). The excitation spectrum of the probe was analyzed for wavelengths 300-500 nm with emission read at 545 nm. 3 μM of each probe was applied to serial two fold dilutions of the carbohydrate. Respective probes were excited at wavelengths unique to each probe (specified in figure), and emission was read at 545 nm. […]
PROPERTY: RFU change (Correlation analysis)

Tell me measured RFU change (Correlation analysis) for Cl.Cl.c1csc(-c2cc(CCn3ccnc3)c(-c3ccc(-c4sc(-c5cccs5)cc4CCn4ccnc4)s3)s2)c1 [pHTIm, penta Hydrogen Thiophene Imidazole] please.
Increases

Please look at this compound and report its RFU change (Correlation analysis): `Cl.Cl.N=C(N)NCCC[C@H](NC(=O)Cc1cc(-c2cccs2)sc1-c1ccc(-c2sc(-c3cccs3)cc2CC(=O)N[C@@H](CCCNC(=N)N)C(=O)O)s1)C(=O)O`
Increases

---

Settings: to chitin
PROPERTY: Sensitivity

Read the entry `O=C(Cc1cc(-c2cccs2)sc1-c1ccc(-c2sc(-c3cccs3)cc2CC(=O)N[C@@H](Cc2ccc([O-])cc2)C(=O)[O-])s1)N[C@@H](Cc1ccc([O-])cc1)C(=O)[O-].[Na+].[Na+].[Na+].[Na+]` and write its reported Sensitivity.
Yes

Find the measured Sensitivity of `NCCCC[C@H](NC(=O)Cc1cc(-c2cccs2)sc1-c1ccc(-c2sc(-c3cccs3)cc2CC(=O)N[C@@H](CCCCN)C(=O)[O-])s1)C(=O)[O-].[Na+].[Na+]` and report it.
Yes

Look up and state reported Sensitivity for `Cl.Cl.O=C(Cc1cc(-c2cccs2)sc1-c1ccc(-c2sc(-c3cccs3)cc2CC(=O)NCCc2c[nH]cn2)s1)NCCc1c[nH]cn1`
Yes

---

Conditions: Cellulose 10-[…], 3 μM probe, spectral analysis, Excitation 300-500, Emission 545
PROPERTY: RFU change (Signal deviation with increasing [Carbohydrate])

Take a look at these entries with their results.
Provide measured RFU change (Signal deviation with increasing [Carbohydrate]) value, entry: Cl.Cl.N=C(N)NCCC[C@H](NC(=O)Cc1cc(-c2cccs2)sc1-c1ccc(-c2sc(-c3cccs3)cc2CC(=O)N[C@@H](CCCNC(=N)N)C(=O)O)s1)C(=O)O [pHTA-Arg]
Increase

Complete the entry with RFU change (Signal deviation with increasing [Carbohydrate]) for O=C([O-])C[C@H](NC(=O)Cc1cc(-c2cccs2)sc1-c1ccc(-c2sc(-c3cccs3)cc2CC(=O)N[C@@H](CC(=O)[O-])C(=O)[O-])s1)C(=O)[O-].[Na+].[Na+].[Na+].[Na+] [pHTA-Asp]
Unclear

Look up and report measured RFU change (Signal deviation with increasing [Carbohydrate]) for this entry: O=C(Cc1cc(-c2cccs2)sc1-c1ccc(-c2sc(-c3cccs3)cc2CC(=O)N[C@@H](Cc2ccc([O-])cc2)C(=O)[O-])s1)N[C@@H](Cc1ccc([O-])cc1)C(=O)[O-].[Na+].[Na+].[Na+].[Na+] [pHTA-Tyr]
Unclear

Return value of RFU change (Signal deviation with increasing [Carbohydrate]) for input Cl.Cl.NCCc1cc(-c2cccs2)sc1-c1ccc(-c2sc(-c3cccs3)cc2CCN)s1 [pHTEA, penta Hydrogen Thiophene Ethanol Amine] , no commentary.
Increase

More entries:
Could you please provide reported RFU change (Signal deviation with increasing [Carbohydrate]) for O=C([O-])CC[C@H](NC(=O)Cc1cc(-c2cccs2)sc1-c1ccc(-c2sc(-c3cccs3)cc2CC(=O)N[C@@H](CCC(=O)[O-])C(=O)[O-])s1)C(=O)[O-].[Na+].[Na+].[Na+].[Na+] [pHTA-Glu] ? Thanks!
Unclear

---

Settings: to cellulobiose
PROPERTY: Sensitivity

Output measured Sensitivity for this item: `O=C([O-])C[C@H](NC(=O)Cc1cc(-c2cccs2)sc1-c1ccc(-c2sc(-c3cccs3)cc2CC(=O)N[C@@H](CC(=O)[O-])C(=O)[O-])s1)C(=O)[O-].[Na+].[Na+].[Na+].[Na+]`
Yes

Look up and state reported Sensitivity for `O=C([O-])CC[C@H](NC(=O)Cc1cc(-c2cccs2)sc1-c1ccc(-c2sc(-c3cccs3)cc2CC(=O)N[C@@H](CCC(=O)[O-])C(=O)[O-])s1)C(=O)[O-].[Na+].[Na+].[Na+].[Na+]`
Yes

Look up and state reported Sensitivity for Cl.Cl.NCCc1cc(-c2cccs2)sc1-c1ccc(-c2sc(-c3cccs3)cc2CCN)s1 [pHTEA, penta Hydrogen Thiophene Ethanol Amine]
No

Read off the recorded Sensitivity for `Cl.Cl.N=C(N)NCCC[C@H](NC(=O)Cc1cc(-c2cccs2)sc1-c1ccc(-c2sc(-c3cccs3)cc2CC(=O)N[C@@H](CCCNC(=N)N)C(=O)O)s1)C(=O)O`
No

Now for a further compound.
Provide one value: measured Sensitivity of `NCCCC[C@H](NC(=O)Cc1cc(-c2cccs2)sc1-c1ccc(-c2sc(-c3cccs3)cc2CC(=O)N[C@@H](CCCCN)C(=O)[O-])s1)C(=O)[O-].[Na+].[Na+]`
No

---

Settings: Heparin 5-0.019 mg/ml, 3 μM probe, probe-specific excitation λ, emission 545 nm
PROPERTY: RFU change (Correlation analysis)

Here's what some known entries look like.
Query RFU change (Correlation analysis) for `O=C(Cc1cc(-c2cccs2)sc1-c1ccc(-c2sc(-c3cccs3)cc2CC(=O)N[C@@H](Cc2ccc([O-])cc2)C(=O)[O-])s1)N[C@@H](Cc1ccc([O-])cc1)C(=O)[O-].[Na+].[Na+].[Na+].[Na+]`
Increases

Check the records and state RFU change (Correlation analysis) for `NCCCC[C@H](NC(=O)Cc1cc(-c2cccs2)sc1-c1ccc(-c2sc(-c3cccs3)cc2CC(=O)N[C@@H](CCCCN)C(=O)[O-])s1)C(=O)[O-].[Na+].[Na+]`
Increases

Identify the reported RFU change (Correlation analysis) for the following entry. `O=C([O-])CC[C@H](NC(=O)Cc1cc(-c2cccs2)sc1-c1ccc(-c2sc(-c3cccs3)cc2CC(=O)N[C@@H](CCC(=O)[O-])C(=O)[O-])s1)C(=O)[O-].[Na+].[Na+].[Na+].[Na+]`
Unclear

Please supply the value of reported RFU change (Correlation analysis) for the item `Cl.Cl.O=C(Cc1cc(-c2cccs2)sc1-c1ccc(-c2sc(-c3cccs3)cc2CC(=O)NCCc2c[nH]cn2)s1)NCCc1c[nH]cn1`
Unclear

// moving on: another record for RFU change (Correlation analysis)
Complete the entry with RFU change (Correlation analysis) for `O=C([O-])C[C@H](NC(=O)Cc1cc(-c2cccs2)sc1-c1ccc(-c2sc(-c3cccs3)cc2CC(=O)N[C@@H](CC(=O)[O-])C(=O)[O-])s1)C(=O)[O-].[Na+].[Na+].[Na+].[Na+]`
Unclear
